Tested on: ATP;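 note: ATP exposure 15 min at 22 °C before imaging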
experimental-protocol: switch fluorescence ratio, 500 uM ATP over buffer (Cy3 cluster intensity, sum of 5 cycles each) (fold (ratio)); higher = stronger signal-on switching upon ATP binding; sequences stand for … in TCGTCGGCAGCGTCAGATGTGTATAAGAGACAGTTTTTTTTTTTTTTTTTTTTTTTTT…TC
stated-conditions: aptamer strand: ATP DNA aptamer (quencher-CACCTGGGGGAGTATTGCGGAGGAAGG + anchor), 100 nM annealed; ATP concentration: 500 uM

- ordered-residues: "AAAGGAGTTT"
  assay-system: "ATP"
  switch fluorescence ratio: 1.01
- ordered-residues: "TATGGTTTAC"
  assay-system: "ATP"
  switch fluorescence ratio: 1
- ordered-residues: "AGTTTTCATT"
  assay-system: "ATP"
  switch fluorescence ratio: 1
- ordered-residues: "ATAGAACTTT"
  assay-system: "ATP"
  switch fluorescence ratio: 0.997
- ordered-residues: "GGGTTGTGTG"
  assay-system: "ATP"
  switch fluorescence ratio: 0.991
- ordered-residues: "GCCAGGGTCA"
  assay-system: "ATP"
  switch fluorescence ratio: 1.03
- ordered-residues: "TTTCTGCTTT"
  assay-system: "ATP"
  switch fluorescence ratio: 1.04
- ordered-residues: "CTTAGGGAGT"
  assay-system: "ATP"
  switch fluorescence ratio: 1.01
- ordered-residues: "TTTGCAAACT"
  assay-system: "ATP"
  switch fluorescence ratio: 0.994
- ordered-residues: "TCTGGTATGG"
  assay-system: "ATP"
  switch fluorescence ratio: 0.994

* * *

System: ATP;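 note: ATP exposure 15 min at 22 °C before imaging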
experimental-protocol: switch fluorescence ratio, 500 uM ATP over buffer (Cy3 cluster intensity, sum of 5 cycles each) (fold (ratio)); higher = stronger signal-on switching upon ATP binding; sequences stand for … in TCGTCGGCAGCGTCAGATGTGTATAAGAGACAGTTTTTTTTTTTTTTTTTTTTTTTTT…TC
stated-conditions: aptamer strand: ATP DNA aptamer (quencher-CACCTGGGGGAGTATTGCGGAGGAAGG + anchor), 100 nM annealed; ATP concentration: 500 uM

- ordered-residues: "CGGTCAAGAG"
  switch fluorescence ratio: 1.11
- ordered-residues: "AGGCTGTGGG"
  switch fluorescence ratio: 1.03
- ordered-residues: "AGATTAGGGT"
  switch fluorescence ratio: 1.01
- ordered-residues: "AGATAATTTT"
  switch fluorescence ratio: 0.988
- ordered-residues: "GGGGGTCTGG"
  switch fluorescence ratio: 0.986
- ordered-residues: "TAGTTGCATT"
  switch fluorescence ratio: 0.994
- ordered-residues: "GAGGTGTTTT"
  switch fluorescence ratio: 1.01
- ordered-residues: "CCAATCAGGT"
  switch fluorescence ratio: 1.08
- ordered-residues: "AAAAGTTTGG"
  switch fluorescence ratio: 1
- ordered-residues: "TATGTTTTTT"
  switch fluorescence ratio: 0.997
- ordered-residues: "ATGTACGATA"
  switch fluorescence ratio: 1.14
- ordered-residues: "TACTTAGGTG"
  switch fluorescence ratio: 1.17
- ordered-residues: "GCCGCCAGGG"
  switch fluorescence ratio: 1.26
- ordered-residues: "TTTATGGTGT"
  switch fluorescence ratio: 1.17
- ordered-residues: "GGTAAATTGT"
  switch fluorescence ratio: 1.01
- ordered-residues: "AAGCCTATTG"
  switch fluorescence ratio: 0.961
- ordered-residues: "AAGGGCCTTC"
  switch fluorescence ratio: 1.03
- ordered-residues: "CAAGGTCGGC"
  switch fluorescence ratio: 1
- ordered-residues: "CGGCCTGTTG"
  switch fluorescence ratio: 1.01
- ordered-residues: "AGGGCGGTCA"
  switch fluorescence ratio: 0.996

* * *

Tested on: ATP;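 note: ATP exposure 15 min at 22 °C before imaging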
experimental-protocol: switch fluorescence ratio, 500 uM ATP over buffer (Cy3 cluster intensity, sum of 5 cycles each) (fold (ratio)); higher = stronger signal-on switching upon ATP binding; sequences stand for … in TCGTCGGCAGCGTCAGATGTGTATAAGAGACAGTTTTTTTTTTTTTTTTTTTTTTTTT…TC
stated-conditions: aptamer strand: ATP DNA aptamer (quencher-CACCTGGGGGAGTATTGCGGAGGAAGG + anchor), 100 nM annealed; ATP concentration: 500 uM
Here, each record is paired with measured switch fluorescence ratio data.

- ordered-residues: "GGGCTCATTT"
  assay-system: "ATP"
  switch fluorescence ratio: 1.01
- ordered-residues: "TTCCCTTATG"
  assay-system: "ATP"
  switch fluorescence ratio: 0.976
- ordered-residues: "ATATAAGAAA"
  assay-system: "ATP"
  switch fluorescence ratio: 1.03
- ordered-residues: "TTCTACGGGC"
  assay-system: "ATP"
  switch fluorescence ratio: 1.11
- ordered-residues: "TGAAATGGCT"
  assay-system: "ATP"
  switch fluorescence ratio: 0.997
- ordered-residues: "TTAGACGGCC"
  assay-system: "ATP"
  switch fluorescence ratio: 1.03
- ordered-residues: "CATTGTTGAC"
  assay-system: "ATP"
  switch fluorescence ratio: 0.961
- ordered-residues: "GGAGGTAAGG"
  assay-system: "ATP"
  switch fluorescence ratio: 0.973
- ordered-residues: "CGCGTGGCTG"
  assay-system: "ATP"
  switch fluorescence ratio: 1
- ordered-residues: "TTGTGTGGGG"
  assay-system: "ATP"
  switch fluorescence ratio: 1.01

* * *

Test system: ATP;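 note: ATP exposure 15 min at 22 °C before imaging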
experimental-protocol: switch fluorescence ratio, 500 uM ATP over buffer (Cy3 cluster intensity, sum of 5 cycles each) (fold (ratio)); higher = stronger signal-on switching upon ATP binding; sequences stand for … in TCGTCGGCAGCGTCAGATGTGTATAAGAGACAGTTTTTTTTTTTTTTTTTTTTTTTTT…TC
stated-conditions: aptamer strand: ATP DNA aptamer (quencher-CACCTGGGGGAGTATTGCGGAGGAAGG + anchor), 100 nM annealed; ATP concentration: 500 uM
Here, each record is paired with measured switch fluorescence ratio data.

- ordered-residues: "TGAAAAAAT"
  switch fluorescence ratio: 0.977
- ordered-residues: "GGTGTGTCGT"
  switch fluorescence ratio: 1.02
- ordered-residues: "CTAGGGTTGT"
  switch fluorescence ratio: 1.02
- ordered-residues: "TTACAGCATT"
  switch fluorescence ratio: 1.07
- ordered-residues: "GGGTCTTCGC"
  switch fluorescence ratio: 0.991
- ordered-residues: "ATGTAAGTGC"
  switch fluorescence ratio: 0.967
- ordered-residues: "TGAGTGAAAT"
  switch fluorescence ratio: 1.1
- ordered-residues: "GATGTCAAGA"
  switch fluorescence ratio: 1.01
- ordered-residues: "TGGTTAGAAT"
  switch fluorescence ratio: 0.986
- ordered-residues: "TGTTGGGCGG"
  switch fluorescence ratio: 0.969
- ordered-residues: "GATTTACGAT"
  switch fluorescence ratio: 1.03
- ordered-residues: "GCTTTATTAA"
  switch fluorescence ratio: 1
- ordered-residues: "GTGGGGGTTC"
  switch fluorescence ratio: 0.985
- ordered-residues: "TATACGGCCG"
  switch fluorescence ratio: 1
- ordered-residues: "TTGCTTTGTT"
  switch fluorescence ratio: 1
- ordered-residues: "CATAGAGTTG"
  switch fluorescence ratio: 1.03
- ordered-residues: "ACTAAATATG"
  switch fluorescence ratio: 1.05
- ordered-residues: "TCTGTGTTGG"
  switch fluorescence ratio: 0.98
- ordered-residues: "CAATATATCT"
  switch fluorescence ratio: 1.01
- ordered-residues: "ATCGGTGAGG"
  switch fluorescence ratio: 0.971
- ordered-residues: "TCGGTTCTAC"
  switch fluorescence ratio: 0.998
- ordered-residues: "GGGAGGGAAG"
  switch fluorescence ratio: 1.03
- ordered-residues: "GAAAGTAATT"
  switch fluorescence ratio: 0.996
- ordered-residues: "TTACCCCAGT"
  switch fluorescence ratio: 1.21
- ordered-residues: "TGGGGTGCAT"
  switch fluorescence ratio: 0.993
- ordered-residues: "CGGGTAAGTA"
  switch fluorescence ratio: 1.03
- ordered-residues: "CAGGTTCACC"
  switch fluorescence ratio: 1.03
- ordered-residues: "GTTCGTACGT"
  switch fluorescence ratio: 0.962
- ordered-residues: "ATGAGGCCGG"
  switch fluorescence ratio: 1.12
- ordered-residues: "TTGTAGGGCC"
  switch fluorescence ratio: 1.03
- ordered-residues: "ATACGAAGGG"
  switch fluorescence ratio: 0.985
- ordered-residues: "GGTAATTATT"
  switch fluorescence ratio: 0.951
- ordered-residues: "CCGGGCCAGG"
  switch fluorescence ratio: 1.25
- ordered-residues: "ATCTATGATA"
  switch fluorescence ratio: 0.954
- ordered-residues: "TTTATCATAA"
  switch fluorescence ratio: 0.958
- ordered-residues: "CCTTTTGCGC"
  switch fluorescence ratio: 1.31
- ordered-residues: "TAAAAGTTTA"
  switch fluorescence ratio: 1.04
- ordered-residues: "CGATGGGTGC"
  switch fluorescence ratio: 0.946
- ordered-residues: "CGCTACGGTT"
  switch fluorescence ratio: 1.04
- ordered-residues: "TCAGAGTGTG"
  switch fluorescence ratio: 0.989
- ordered-residues: "AAAAGTTGCG"
  switch fluorescence ratio: 0.968
- ordered-residues: "GGAAGTTAGT"
  switch fluorescence ratio: 0.983
- ordered-residues: "AAGCGCTGTT"
  switch fluorescence ratio: 1
- ordered-residues: "TGGTTTAGCG"
  switch fluorescence ratio: 0.964
- ordered-residues: "CAAATATACT"
  switch fluorescence ratio: 1.14
- ordered-residues: "GGGACCCAGC"
  switch fluorescence ratio: 0.992
- ordered-residues: "GAGAAAGTGG"
  switch fluorescence ratio: 0.992
- ordered-residues: "TTGTGGCTGG"
  switch fluorescence ratio: 0.96
- ordered-residues: "TCGTTCAGTA"
  switch fluorescence ratio: 0.958
- ordered-residues: "AGGTTGGGT"
  switch fluorescence ratio: 0.973
- ordered-residues: "TGGGTATTTT"
  switch fluorescence ratio: 1.01
- ordered-residues: "ATTTTTTGGC"
  switch fluorescence ratio: 0.996
- ordered-residues: "GATGCGGTTT"
  switch fluorescence ratio: 0.994
- ordered-residues: "GGGATGGATT"
  switch fluorescence ratio: 0.969
- ordered-residues: "AGGTACAGTA"
  switch fluorescence ratio: 1.02
- ordered-residues: "GGGCAAAGGA"
  switch fluorescence ratio: 0.993
- ordered-residues: "TGCTTACTTT"
  switch fluorescence ratio: 1.33
- ordered-residues: "TGGTCCAGTG"
  switch fluorescence ratio: 1.03
- ordered-residues: "AAGTGACCTT"
  switch fluorescence ratio: 1.14
- ordered-residues: "TTGGTGGTTG"
  switch fluorescence ratio: 0.993
- ordered-residues: "TAGGTGGAAA"
  switch fluorescence ratio: 0.992
- ordered-residues: "ACTCCTCGAC"
  switch fluorescence ratio: 2.71
- ordered-residues: "TTCAAATGGG"
  switch fluorescence ratio: 0.999
- ordered-residues: "AGCACGAGGG"
  switch fluorescence ratio: 0.982
- ordered-residues: "TGAGAAGGGA"
  switch fluorescence ratio: 1.02
- ordered-residues: "TGCTTGCTTT"
  switch fluorescence ratio: 1
- ordered-residues: "CGGTATTCCG"
  switch fluorescence ratio: 0.945
- ordered-residues: "CTGGTTTGCC"
  switch fluorescence ratio: 0.974
- ordered-residues: "AATAAGGGGA"
  switch fluorescence ratio: 1.02
- ordered-residues: "TTGTATTAGT"
  switch fluorescence ratio: 0.983
- ordered-residues: "TTCGTCGGGC"
  switch fluorescence ratio: 0.986
- ordered-residues: "CTTAGACCCC"
  switch fluorescence ratio: 1.01
- ordered-residues: "TCTCAGTGTT"
  switch fluorescence ratio: 1.03
- ordered-residues: "ATAAGGGAGA"
  switch fluorescence ratio: 1
- ordered-residues: "TGGTGGGGGA"
  switch fluorescence ratio: 0.987
- ordered-residues: "AATTTACTGT"
  switch fluorescence ratio: 1.01
- ordered-residues: "AAGTGGCTTT"
  switch fluorescence ratio: 1
- ordered-residues: "TCAATAGAAT"
  switch fluorescence ratio: 1.06
- ordered-residues: "AATATTTTTG"
  switch fluorescence ratio: 1
- ordered-residues: "TAAGCATAAG"
  switch fluorescence ratio: 1.01
- ordered-residues: "AAGGGTTAAG"
  switch fluorescence ratio: 0.997
- ordered-residues: "GATTGGCACC"
  switch fluorescence ratio: 0.965
- ordered-residues: "GTTTTTTAGA"
  switch fluorescence ratio: 0.973
- ordered-residues: "ACAGCAGGGG"
  switch fluorescence ratio: 1.25
- ordered-residues: "TCTATACCAC"
  switch fluorescence ratio: 1.06
- ordered-residues: "CATATCTAGC"
  switch fluorescence ratio: 0.997
